Test system: U2OS PTBP1-KO;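 note: FLICK assay: SYTOX Green fluorescence of dead cells tracked over time after drugging in 96-well plates, with total cell counts taken from Triton X-100 lysed wells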
test: maximum observed lethal fraction; higher = more cell death
applied conditions: 0.1 µM
assay endpoint: maximum observed lethal fraction
Respond using a number only.

Recorded results for 3 molecules are shown here.
{"molecule": "CC(C)C[C@@H](C=O)NC(=O)[C@H](CC(C)C)NC(=O)[C@H](CC(C)C)NC(=O)OCc1ccccc1", "maximum observed lethal fraction": 0.0708}
{"molecule": "O=C(NOC[C@H](O)CO)c1ccc(F)c(F)c1Nc1ccc(I)cc1F", "maximum observed lethal fraction": 0.11}
{"molecule": "CC[C@@]1(O)C(=O)OCc2c1cc1n(c2=O)Cc2cc3ccccc3nc2-1", "maximum observed lethal fraction": 0.0812}

Turning now to a further record.
Can you look up maximum observed lethal fraction on U2OS PTBP1-KO for CC(C)[C@]12O[C@H]1[C@@H]1O[C@]13[C@]1(O[C@H]1C[C@H]1C4=C(CC[C@@]13C)C(=O)OC4)[C@@H]2O [Triptolide] ?
0.206

Reference for the values: the supplement of paper PMC12406974
